Below is a list of entries, each paired with its recorded LC50 (concentration causing 50% net cell kill) value.
System: DU-145
Test Summary: SRB colorimetric assay of cell growth and viability, DU-145
Assay type: cell-based, human
Assay Setup: 48 hours exposure, SRB
Measure Name: LC50 (concentration causing 50% net cell kill)

* C/C=C1\NC(=O)[C@H](Cc2c(F)c(F)c(F)c(F)c2F)NC(=O)[C@@H](C(C)C)NC(=O)[C@@H]([C@@H](C)CC)NC(=O)[C@H](NC(=O)[C@H](NC(=O)[C@H](CCCN)NC(=O)[C@H]2CCCN2C(=O)[C@H](NC(=O)[C@@H](NC(=O)[C@@H](NC(=O)[C@H](NC(=O)CC[C@@H](C)CC)C(C)C)[C@@H](C)O)C(C)C)C(C)C)[C@@H](C)CC)[C@@H](C)OC(=O)[C@H](C(C)C)NC1=O [Compound 71, [Phe(F5)^3, (4S)-MeHex^14]-KF] | 3.64 µM
* C/C=C1\NC(=O)[C@H](Cc2ccc(F)cc2)NC(=O)[C@@H](C(C)C)NC(=O)[C@@H]([C@@H](C)CC)NC(=O)[C@H](NC(=O)[C@H](NC(=O)[C@H](CCCN)NC(=O)[C@H]2CCCN2C(=O)[C@H](NC(=O)[C@@H](NC(=O)[C@@H](NC(=O)[C@H](NC(=O)CC[C@@H](C)CC)C(C)C)[C@@H](C)O)C(C)C)C(C)C)[C@@H](C)CC)[C@@H](C)OC(=O)[C@H](C(C)C)NC1=O [Compound 74, [Phe(4-F)^3, (4S)-MeHex^14]-KF] | 3.25 µM
* C/C=C1\NC(=O)[C@H](Cc2ccccc2)NC(=O)[C@@H](C(C)C)NC(=O)[C@@H]([C@@H](C)CC)NC(=O)[C@H](NC(=O)[C@H](NC(=O)[C@H](CCCNC(=O)CCCC[C@@H]2SC[C@@H]3NC(=O)N[C@@H]32)NC(=O)[C@H]2CCCN2C(=O)[C@H](NC(=O)[C@@H](NC(=O)[C@@H](NC(=O)[C@H](NC(=O)CCCC(C)C)C(C)C)[C@@H](C)O)C(C)C)C(C)C)[C@@H](C)CC)[C@@H](C)OC(=O)[C@H](C(C)C)NC1=O [Compound 99, [Orn(Biot)^8]-Kahalalide F] | 3.26 µM

###

Tested on: DU-145
Test Summary: SRB colorimetric assay of cell growth and viability, DU-145
Assay type: cell-based, human
Assay Setup: 48 hours exposure, SRB
Measure Name: GI50 (µM)

• C/C=C1\NC(=O)[C@H](Cc2ccccc2)N(C)C(=O)[C@@H](C(C)C)NC(=O)[C@@H]([C@@H](C)CC)NC(=O)[C@H](NC(=O)[C@H](NC(=O)[C@H](CCCN)NC(=O)[C@H]2CCCN2C(=O)[C@H](NC(=O)[C@@H](NC(=O)[C@@H](NC(=O)[C@H](NC(=O)CC[C@@H](C)CC)C(C)C)[C@@H](C)O)C(C)C)C(C)C)[C@@H](C)CC)[C@@H](C)OC(=O)[C@H](C(C)C)NC1=O [Compound 80, [NMePhe^3, (4S)-MeHex^14]-KF] = 1.07
• C/C=C1\NC(=O)[C@H](Cc2c(F)c(F)c(F)c(F)c2F)NC(=O)[C@@H](C(C)C)NC(=O)[C@@H]([C@@H](C)CC)NC(=O)[C@H](NC(=O)[C@H](NC(=O)[C@H](CCCN)NC(=O)[C@H]2CCCN2C(=O)[C@H](NC(=O)[C@@H](NC(=O)[C@@H](NC(=O)[C@H](NC(=O)CC[C@@H](C)CC)C(C)C)[C@@H](C)O)C(C)C)C(C)C)[C@@H](C)CC)[C@@H](C)OC(=O)[C@H](C(C)C)NC1=O [Compound 71, [Phe(F5)^3, (4S)-MeHex^14]-KF] = 1.22

###

System: LoVo
Test Summary: SRB colorimetric assay of cell growth and viability, LoVo
Type: cell-based, human
Assay Setup: 48 hours exposure; read-out: LC50 LOVO
Where a SMILES comes first, the peptide text is derived from it. Bridges are numbered along the chain shown (N, C = ends). [ ]: non-standard residue; d: D form. The star is where a group is joined. d(aIle) = CC[C@H](C)[C@@H](N)C(=O)O; Hexanoyl(5-Me) = CC(C)CCCC(=O)*; Orn = NCCC[C@H](N)C(=O)O; Dhb = C/C=C(\N)C(=O)O
Measure Name: CC50

• C/C=C1\NC(=O)[C@H](Cc2ccccc2)NC(=O)[C@@H](C(C)C)NC(=O)[C@@H]([C@@H](C)CC)NC(=O)[C@H](NC(=O)[C@H](NC(=O)[C@H](CCCN)NC(=O)[C@H]2CCCN2C(=O)[C@H](NC(=O)[C@@H](NC(=O)[C@@H](NC(=O)[C@H](NC(=O)CC[C@H](C)CC)C(C)C)[C@@H](C)O)C(C)C)C(C)C)[C@@H](C)CC)[C@@H](C)OC(=O)[C@H](C(C)C)NC1=O [Compound 16, [(4R)-MeHex^14]-KF] = 2280 nM
• C/C=C1\NC(=O)[C@H](Cc2ccccc2)NC(=O)[C@@H](C(C)C)NC(=O)[C@@H]([C@@H](C)CC)NC(=O)[C@H](NC(=O)[C@H](NC(=O)[C@H](CCCN)NC(=O)[C@H]2CCCN2C(=O)[C@H](NC(=O)[C@@H](NC(=O)[C@@H](NC(=O)[C@H](NC(=O)CCCC(C)C)C(C)C)[C@@H](C)O)C(C)C)C(C)C)[C@@H](C)CC)COC(=O)[C@H](C(C)C)NC1=O [Compound 3, [D-Ser^6]-KF] ({Hexanoyl(5-Me)}-[dV]TV[dV][dP][Orn][d(aIle)][dS][d(aIle)][dV]F[Dhb]V; ester 8-C) = 758 nM

###

System: PANC-1
Test Summary: SRB colorimetric assay of cell growth and viability, PANC-1
Format: cell-based, human
Assay Setup: PANC-1; 48 hours exposure; read-out: LC50 PANC-1
Where a SMILES comes first, the peptide text is derived from it. Bridges are numbered along the chain shown (N, C = ends). [ ]: non-standard residue; d: D form. The star is where a group is joined. d(aIle) = CC[C@H](C)[C@@H](N)C(=O)O; d(aThr) = C[C@@H](O)[C@@H](N)C(=O)O; Hexanoyl(5-Me) = CC(C)CCCC(=O)*; Phg = N[C@H](C(=O)O)c1ccccc1; Orn = NCCC[C@H](N)C(=O)O; Dhb = C/C=C(\N)C(=O)O
Below is a list of entries, each paired with its recorded CC50 value.
Measure Name: CC50 (µM)

* C/C=C1\NC(=O)[C@H](Cc2ccccc2)NC(=O)[C@@H](C(C)C)NC(=O)[C@@H]([C@@H](C)CC)NC(=O)[C@H](NC(=O)[C@H](NC(=O)[C@H](CCCN)NC(=O)[C@H]2CCCCN2C(=O)[C@H](NC(=O)[C@@H](NC(=O)[C@@H](NC(=O)[C@H](NC(=O)CC[C@@H](C)CC)C(C)C)[C@@H](C)O)C(C)C)C(C)C)[C@@H](C)CC)[C@@H](C)OC(=O)[C@H](C(C)C)NC1=O [Compound 60, [D-Pip^9, (4S)-MeHex^14]-KF] | 6.7
* C/C=C1\NC(=O)[C@H](c2ccccc2)NC(=O)[C@@H](C(C)C)NC(=O)[C@@H]([C@@H](C)CC)NC(=O)[C@H](NC(=O)[C@H](NC(=O)[C@H](CCCN)NC(=O)[C@H]2CCCN2C(=O)[C@H](NC(=O)[C@@H](NC(=O)[C@@H](NC(=O)[C@H](NC(=O)CCCC(C)C)C(C)C)[C@@H](C)O)C(C)C)C(C)C)[C@@H](C)CC)[C@@H](C)OC(=O)[C@H](C(C)C)NC1=O [Compound 87, [Phg^3]-KF] ({Hexanoyl(5-Me)}-[dV]TV[dV][dP][Orn][d(aIle)][d(aThr)][d(aIle)][dV][Phg][Dhb]V; ester 8-C) | 1.9

###

System: IGROV-1
Test Summary: SRB colorimetric assay of cell growth and viability, IGROV-1
Assay type: cell-based, human
Assay Setup: 48 hours exposure
Where a SMILES comes first, the peptide text is derived from it. Bridges are numbered along the chain shown (N, C = ends). [ ]: non-standard residue; d: D form. The star is where a group is joined. d(aIle) = CC[C@H](C)[C@@H](N)C(=O)O; d(aThr) = C[C@@H](O)[C@@H](N)C(=O)O; hCha = N[C@@H](CCC1CCCCC1)C(=O)O; Hexanoyl(5-Me) = CC(C)CCCC(=O)*; Orn = NCCC[C@H](N)C(=O)O; Dhb = C/C=C(\N)C(=O)O
Measure Name: LC50 (concentration causing 50% net cell killing) (µM)

* C/C=C1\NC(=O)[C@H](Cc2ccccc2)NC(=O)[C@@H](C(C)C)NC(=O)[C@@H]([C@@H](C)CC)NC(=O)[C@H](NC(=O)[C@H](NC(=O)[C@H](CCCN)NC(=O)[C@H]2CCCN2C(=O)[C@H](NC(=O)[C@@H](NC(=O)[C@@H](NC(=O)[C@H](NC(=O)C(F)(F)C(F)(F)C(F)(F)C(F)(F)C(F)(F)C(F)(F)F)C(C)C)[C@@H](C)O)C(C)C)C(C)C)[C@@H](C)CC)[C@@H](C)OC(=O)[C@H](C(C)C)NC1=O [Compound 26, [Pfh^14]-KF] | 3.36
* C/C=C1\NC(=O)[C@H](Cc2ccccc2)NC(=O)[C@@H](C(C)C)NC(=O)[C@@H]([C@@H](C)CC)NC(=O)[C@H](NC(=O)[C@H](NC(=O)[C@H](CCCN)NC(=O)[C@H]2CCCN2C(=O)[C@H](NC(=O)[C@H](CCC2CCCCC2)NC(=O)[C@@H](NC(=O)[C@H](NC(=O)CCCC(C)C)C(C)C)[C@@H](C)O)C(C)C)[C@@H](C)CC)[C@@H](C)OC(=O)[C@H](C(C)C)NC1=O [Compound 9, [hCh^11]-KF] ({Hexanoyl(5-Me)}-[dV]T[hCha][dV][dP][Orn][d(aIle)][d(aThr)][d(aIle)][dV]F[Dhb]V; ester 8-C) | 3.31

The values you see were collected from patent US20070117743A1.
